Substrate: CCCC(=O)Oc1ccc([N+](=O)[O-])cc1
Procedure text: purified protein
Assay type: biochemical, Lactobacillus johnsonii
Condition info: HEPES pH 7.80, 25 °C (typical assay; saturation conditions as in ref 14), pH 7.8
Readout name: kcat/Km

Protein	kcat/Km
LJ0536 (cinnamoyl esterase) (Lactobacillus johnsonii; H225A) (protein, full length in p15TV-L, E. coli BL21(DE3); His6-tag removed by TEV for kinetics; crystals: tag uncleaved, protease-treated (subtilisin or V8), residues 1-245 modelled, four C-terminal residues lost) MATITLERDGLQLVGTREEPFGEIYDMAIIFHGFTANRNTSLLREIANSLRDENIASVRFDFNGHGDSDGKFENMTVLNEIEDANAILNYVKTDPHVRNIYLVGHSQGGVVASMLAGLYPDLIKKVVLLAPAATLKGDALEGNTQGVTYNPDHIPDRLPFKDLTLGGFYLRIAQQLPIYEVSAQFTKPVCLIHGTDDTVVSPNASKKYDQIYQNSTLHLIEGADACFSDSYQKNAVNLTTDFLQNNNAF	1570 M⁻¹ s⁻¹

In: I am curious: what kcat/Km value has been reported for LJ0536 (cinnamoyl esterase) (Lactobacillus johnsonii; Q145A) (protein, full length in p15TV-L, E. coli BL21(DE3); His6-tag removed by TEV for kinetics; crystals: tag uncleaved, protease-treated (subtilisin or V8), residues 1-245 modelled, four C-terminal residues lost) MATITLERDGLQLVGTREEPFGEIYDMAIIFHGFTANRNTSLLREIANSLRDENIASVRFDFNGHGDSDGKFENMTVLNEIEDANAILNYVKTDPHVRNIYLVGHSQGGVVASMLAGLYPDLIKKVVLLAPAATLKGDALEGNTAGVTYNPDHIPDRLPFKDLTLGGFYLRIAQQLPIYEVSAQFTKPVCLIHGTDDTVVSPNASKKYDQIYQNSTLHLIEGADHCFSDSYQKNAVNLTTDFLQNNNAF ?
Out: 3250 M⁻¹ s⁻¹
